# System: Staphylococcus aureus MW2 (mecA+)
# Assay Procedure: normalized DsRed fluorescence (growth of mecA+ strain) (fraction of control range); higher = more growth of mecA+ strain
# Condition Set: compound concentration: 150 uM; cefoxitin: subinhibitory; fluorescent label: DsRed
So basically: normalized DsRed fluorescence at 0.8 or higher? That is 1. Lower than 0.8? That is -1.

(Q) Is normalized DsRed fluorescence for O=C(Nc1c(Cl)cncc1Cl)c1ccc(OC(F)F)c(OCC2CC2)c1 at or above 0.8?
(A) -1

(Q) Is normalized DsRed fluorescence for C#C[C@]1(OC(C)=O)CC[C@H]2[C@@H]3CCC4=CC(=NO)CC[C@@H]4[C@H]3CC[C@@]21CC (mixture of isomers) at or above 0.8?
(A) -1

(Q) Is normalized DsRed fluorescence for O=NN(CCCl)C(=O)NC1CCCCC1 at or above 0.8?
(A) -1

(Q) Is normalized DsRed fluorescence for O=C(O)c1cc(/N=N/c2ccc(S(=O)(=O)Nc3ccccn3)cc2)ccc1O at or above 0.8?
(A) -1

(Q) Is normalized DsRed fluorescence for CC(C)OC(=O)C(C)(C)Oc1ccc(C(=O)c2ccc(Cl)cc2)cc1 at or above 0.8?
(A) -1

(Q) Is normalized DsRed fluorescence for NC(=O)OCC(COC(N)=O)c1ccccc1 [Felbamate] at or above 0.8?
(A) 1

(Q) Is normalized DsRed fluorescence for CC(C)(O/N=C(\C(=O)N[C@@H]1C(=O)N2C(C(=O)[O-])=C(C[n+]3ccccc3)CS[C@H]12)c1csc(N)n1)C(=O)O at or above 0.8?
(A) 1

---

# Test system: Staphylococcus aureus MW2 delta-mecA (mecA-)
# Assay Procedure: normalized GFP fluorescence (growth of mecA- strain) (fraction of control range); higher = more growth of mecA- strain
# Condition Set: compound concentration: 150 uM; cefoxitin: subinhibitory; fluorescent label: GFP
Consider the reported normalized GFP fluorescence of an entry and match it to a band in bin A = under 0.2, bin B = from 0.2 up to 0.5, bin C = 0.5 and over

Use these answered entries as a reference point.
{"Compound": "C[C@]12CC[C@@H]3c4ccc(O)cc4CC[C@H]3[C@@H]1C[C@@H](O)[C@@H]2O", "Label Value": "bin C"}
{"Compound": "CC(C(=O)O)c1cccc(Oc2ccccc2)c1 (stereo not drawn)", "Label Value": "bin A"}
{"Compound": "CO[C@H]1C[C@@H]2CC[C@@H](C)[C@@](O)(O2)C(=O)C(=O)N2CCCC[C@H]2C(=O)O[C@H]([C@H](C)C[C@@H]2CC[C@@H](O)[C@H](OC)C2)CC(=O)[C@H](C)/C=C(\\C)[C@@H](O)[C@@H](OC)C(=O)[C@H](C)C[C@H](C)/C=C/C=C/C=C/1C", "Label Value": "bin A"}
{"Compound": "NC(=O)C1(N2CCCCC2)CCN(CCCC(=O)c2ccc(F)cc2)CC1", "Label Value": "bin C"}
{"Compound": "COc1ccccc1OCC(O)CN1CCN(CC(=O)Nc2c(C)cccc2C)CC1 (stereo not drawn)", "Label Value": "bin C"}
{"Compound": "CC(=O)OCC(=O)[C@@]1(O)CC[C@H]2[C@@H]3CCC4=CC(=O)CC[C@]4(C)[C@H]3[C@@H](O)C[C@@]21C", "Label Value": "bin C"}

(Q) Band assignment needed for O=c1ccn([C@@H]2O[C@H](CO)[C@@H](O)[C@H]2O)c(=O)[nH]1 please.
(A) bin B

(Q) Band assignment needed for Cc1ccc(C(=O)c2ccc(CC(=O)O)n2C)cc1 please.
(A) bin B

(Q) Band assignment needed for CN1CCOC(c2ccccc2)c2ccccc2C1 (stereo not drawn) please.
(A) bin B

(Q) Band assignment needed for O[C@H]1[C@H](O)[C@@H](O)[C@H](O)[C@@H](O)[C@H]1O please.
(A) bin B

(Q) Band assignment needed for CC[C@@H]([C@H](C)O)n1ncn(-c2ccc(N3CCN(c4ccc(OC[C@@H]5CO[C@@](Cn6cncn6)(c6ccc(F)cc6F)C5)cc4)CC3)cc2)c1=O please.
(A) bin C

(Q) Band assignment needed for CC[C@@H](CO)NCCN[C@@H](CC)CO please.
(A) bin B
